These entries and their values trace back to PubChem BioAssay (NCI).

- Test system: LOX IMVI melanoma
- Protocol summary: NCI tumour cell line growth inhibition, 48 h
What TGI was measured for each of the following?

Asked: Lab note: need TGI for C=C1CC2(OC1=O)C(=O)N(CCCCCCCN1C(=O)C3(CC(=C)C(=O)O3)c3ccccc31)c1ccccc12 (stereo not given) on LOX IMVI melanoma, anyone have it?
Given back: 1.54 µM

Asked: Under LOX IMVI melanoma: TGI value of `Brc1ccc(N=NN2CCCCC2)cc1` ?
Given back: > 100 µM

Asked: State its TGI on LOX IMVI melanoma: `c1ccc2c(-c3cnc(-c4c[nH]c5ccccc45)cn3)c[nH]c2c1`
Given back: 94.2 µM

Asked: Hello, I am looking for reported TGI with LOX IMVI melanoma for `N#CC1=C2Sc3ccccc3N2[C@H](c2ccccc2)[C@H]2COC(=O)[C@@H]12` . Could you help?
Given back: 91.6 µM

Asked: Fill in the recorded TGI for this molecule, with LOX IMVI melanoma as test system: COc1ccc(N[C@H](CS(=O)c2ccc(C)cc2)c2ccc(F)cc2)cc1 (stereo not given in full)
Given back: > 100 µM

Asked: API: value(readout= TGI, system= LOX IMVI melanoma, query= `COc1ccc(N2C=Nn3c(nc4sc(C)c(C)c4c3=O)C2)cc1` )
Given back: > 100 µM

Asked: Give the reported TGI for `Cc1cnc2c(C)ccc([N+](=O)[O-])c2c1NCCCN(C)C` (system: LOX IMVI melanoma).
Given back: > 100 µM

Asked: Request: TGI, test system LOX IMVI melanoma, entry `Cc1cnoc1NC1=CC(=O)C(=O)c2ccccc21`
Given back: > 100 µM

Asked: API: value(readout=TGI, system=LOX IMVI melanoma) for record CCOC(=O)/C(O)=C1\C(=O)N(C)C(=O)C1c1ccc(OC)c(OC)c1 (stereo not given)
Given back: > 100 µM

Asked: Please state recorded TGI (tested on LOX IMVI melanoma) of `CCCCOC(=O)CNC(=O)OCCCCC#CC#CCCCCOC(=O)NCC(=O)OCCCC`
Given back: > 100 µM

###

- Test system: M14 melanoma
- Protocol summary: NCI tumour cell line growth inhibition, 48 h
Experimental endpoint: TGI (µM)
Expressed in µM, but write only the number.

Asked: M14 melanoma / TGI / `CC(=O)Oc1ccc(/C=C/C(=O)O[C@@H](C)[C@H](C)OC(=O)/C=C/c2ccc(OC(C)=O)c(OC(C)=O)c2)cc1OC(C)=O` : value?
Given back: 58.4

Asked: What reported TGI corresponds to `COc1ccc2cc(C(=O)/C=C/c3cc(OC)c(OC)c(OC)c3)ccc2c1` on M14 melanoma?
Given back: 16.1

Asked: Enter reported TGI observed with M14 melanoma for O=C(c1ccccc1)C(c1ccccc1)C1(O)C(=O)Nc2c(Cl)cc(Cl)cc21 (stereo not given)
Given back: 37.9

Asked: Lab note: need TGI with M14 melanoma for entry `CCN(CC)Cc1nc2sc3c(c2c(=O)n1-c1ccccc1)CCCC3` , please look it up.
Given back: 30.2

###

- Test system: T-47D breast
- Protocol summary: NCI tumour cell line growth inhibition, 48 h
Could you please report measured TGI for the items listed next?

Asked: Endpoint output: TGI of `CS(=O)(=O)CCNCc1nc(-c2ccc3ncnc(Nc4ccc(F)c(Cl)c4)c3c2)cs1` . Value?
Given back: > 25 µM

Asked: What does the data say about its TGI? Entry: `COc1ccc2nc3cc(Cl)ccc3c(NCCCCCC(=O)NC(COc3cnc4c(ccc5cccnc54)c3)COc3cnc4c(ccc5cccnc54)c3)c2c1`
Given back: 28.6 µM

Asked: Look up TGI: `COc1ccc(C2=C(OC(=O)N(C)C)c3cccn3-c3cc(C(F)(F)F)ccc3S2)cc1`
Given back: > 10 µM

Asked: Which TGI is listed for `O=C(NCCN(CCNC(=O)c1cccc(=O)n1O)CCN(CCNC(=O)c1cccc(=O)n1O)CCNC(=O)c1cccc(=O)n1O)c1cccc(=O)n1O` ?
Given back: > 100 µM
